target: Torsin-1A (Homo sapiens); assay: small-molecule binders of mutant TOR1A in lysate, primary screen, cell lysate, small-molecule microarray, COS7 lysate, 635/667 nm fluorescence (AID 1150); conditions: COS7 hTOR1A mutant lysate, 635 nm fluorescence, higher = more signal;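 note: score pools 667 nm emission and signal to noise measuring lysate protein binding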
measured_metric: composite z-score
Reply with just the number.

compound	tested_target	composite z-score
C[C@H]1NC(=O)[C@@H](C)NC(=O)[C@@]23C(=O)N[C@@H](Cc4ccccc4)C2[C@H](C)[C@@]2(C)O[C@H]2C3/C=C/C/C=C\CNC1=O (some centres not stated)	Torsin-1A (Homo sapiens)	-0.354
[N-]=[N+]=Nc1ccccc1C[C@@]1(C(=O)N2CCOCC2)N=C(c2ccc(OCCCO)cc2)O[C@@H]1c1ccccc1N=[N+]=[N-]	Torsin-1A (Homo sapiens)	0.407
CC(C)(C)OC(=O)CC[C@@]1(C(=O)NCc2ccccc2)N=C(c2ccc(OCCCO)cc2)O[C@@H]1c1ccccc1	Torsin-1A (Homo sapiens)	1.04
COC(=O)c1c(CC[C@@H](CO)NC(=O)N[C@H](Cn2cc(-c3cncn3C)nn2)C(C)C)oc(C(C)=O)c1C(=O)OC	Torsin-1A (Homo sapiens)	0.368
CCN1C(C)=C(C(=O)OC)[C@@H](c2ccccc2)N2C(=O)[C@@]3(C(=O)OC)O[C@@]12[C@@H]1C(=O)CCC[C@@H]13	Torsin-1A (Homo sapiens)	0.353

Any idea what its composite z-score is? The compound is `CC(=O)NCCCC[C@@H]1NC(=O)[C@@H]2C[C@H](C(=O)NCCCCCNC(=O)CS)[C@H](c3ccc(O)cc3)N2C1=O`
0.324

Any idea what its composite z-score is? The compound is `CC[C@@H]1C=C(C(=O)O)[C@H](c2ccccc2)N1S(=O)(=O)c1ccc([N+](=O)[O-])cc1`
0.717

----------
assay: small-molecule microarray binders of probe aShh, primary screen, biochemical, biotinylated probe, 635/667 nm fluorescence (AID 1114); details: higher = more signal;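 note: probe is biotin-labelled aShh protein from a stem cell growth factor screen; measures binding of labelled protein to compounds printed on the slide; score merges feature fluorescence at 667 nm with signal-to-noise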
measured_metric: composite z-score
Reply with just the number.

Any idea what its composite z-score is? The molecule is `CC(C)(C)OC(=O)CC[C@]1(C(=O)N2CCCCC2)N=C(c2ccc(OCCCO)cc2)O[C@H]1c1ccccc1`
-0.138

Any idea what its composite z-score is? The molecule is `C=CCNC(=O)[C@H]1[C@@H]2C(=O)O[C@@H](c3ccccc3)[C@@H](c3ccccc3)N2[C@@H](c2ccccc2OCCO)[C@]12C(=O)N(C(=O)OCCOC)c1ccc(C#CCNC(N)=O)cc12`
-0.0011

Any idea what its composite z-score is? The molecule is `CC(C)=C1C(=O)C(c2ccccc2)=C2CN3C(=O)N(CCc4ccccc4)C(=O)[C@]3(Cc3ccccc3)[C@H]21`
0.251

----------
Quick list: z-score per entry.
test: P. aeruginosa biofilm formation inhibitors, primary screen, PAO1 strain, BacTiter-Glo luminescence, LB-PBS (AID 1144); conditions: 12 h, higher = more signal
Reply with just the number.

Any idea what its z-score is? The compound is O=C1C2C=CC(C(O)C#Cc3ccccc3)N(Nc3ccccc3)C2C(=O)N1c1ccccc1 (configuration not stated)
-0.2

Any idea what its z-score is? The compound is O=C1C2C=CC(C(O)C(c3ccccc3)c3ccccc3)N(Nc3ccc([N+](=O)[O-])cc3)C2C(=O)N1c1ccccc1 (configuration not stated)
-1.81

Any idea what its z-score is? The compound is `COC(=O)C[C@H]1O[C@]2(C(=O)N(Cc3ccccc3)c3ccc(I)cc32)[C@@H](C)[C@@H]1[Si](C)(C)c1ccc(OC)cc1`
-0.135

Any idea what its z-score is? The compound is `COCCOC(=O)N1C(=O)[C@@]2(c3cc(C#CC4=CCCCC4)ccc31)[C@H](C(=O)NC[C@H](O)c1ccccc1)[C@H]1C(=O)O[C@H](c3ccccc3)[C@H](c3ccccc3)N1[C@@H]2c1ccccc1OCCO`
0.423

Any idea what its z-score is? The compound is C#CCNC(/C=C/c1ccccc1)CO (configuration not stated)
-0.558

Any idea what its z-score is? The compound is COc1ccc(NN2C(C(O)c3cc(OC)c(OC)c(OC)c3)C=CC3C(=O)N(C4CCCCC4)C(=O)C32)cc1 (configuration not stated)
-0.272

Any idea what its z-score is? The compound is `COc1ccc([Si](C)(C)[C@@H]2[C@@H](CC(=O)N(CCO)Cc3ccccc3)O[C@]3(C(=O)N(Cc4cccc(N5CCC5=O)c4)c4ccccc43)[C@H]2C)cc1`
0.765
